Test system: IGROV1 ovarian
Measurement description: NCI tumour cell line growth inhibition, 48 h
Metric name: GI50

Please review the following examples before continuing.
{"columns": ["Structure", "Subject of test", "GI50"],
 "data": [
  ["COc1cc2c(=O)n(CC3CCCCC3)c3c4cc[nH]c4ncc3c2cc1OC", "IGROV1 ovarian", "0.891 µM"],
  ["CNc1nc(-c2ccc3c(N)n[nH]c3c2)cc(N2C[C@@H](C(=O)NC3CCCCC3)CC[C@H]2C)n1", "IGROV1 ovarian", "2.45 µM"],
  ["N#Cc1cc2c(cc1Cl)SC(=Nc1ccccc1)N(S(=O)(=O)c1ccc(Br)s1)S2(=O)=O", "IGROV1 ovarian", "12.8 µM"]
]}

Here is another molecule to look at.
For this molecule ( CC(=O)/C(=C/N1CCN(C(=O)c2ccco2)C1=S)C(=O)c1ccccc1 ), measured GI50 is 10.9 µM

----------
Reported values of TGI for individual entries
System: UACC-257 melanoma
Measurement description: NCI tumour cell line growth inhibition, 48 h
# number only, unit µM dropped from output

{"columns": ["Compound", "Unit string", "Reported value"],
 "data": [
  ["CCC(C)N1CN(c2ccccc2)C2(CCN(CCCC3(c4ccc(F)cc4)OCCO3)CC2)C1=O (centres undefined)", "µM", 4.24]
]}

Okay, now this compound:
Measured TGI for this entry C1CC[N-]CC1.CC(=N\O)/C(C)=N/O.CC(=N\O)/C(C)=N/O.C[CH-]C(C)O.[Co+2] on UACC-257 melanoma: 40.2

----------
System: MDA-MB-435
Measurement description: NCI tumour cell line growth inhibition, 48 h
Measured TGI by item

Previously resolved entries follow.
{"columns": ["Compound", "Metric name", "Reported value"],
 "data": [
  ["O=C1c2cc3ncsc3cc2C(=O)c2c(O)ccc(O)c21", "TGI", "> 100 µM"],
  ["O=NNc1c[nH]c(=O)[nH]c1=O", "TGI", "> 100 µM"],
  ["NS(=O)(=O)c1ccc(NCc2nc3ccccc3[nH]2)cc1", "TGI", "> 100 µM"],
  ["COc1ccc(C2=Nc3c(nc(SC)[nH]c3=O)NC(c3ccccc3)C2)cc1 (stereo unspecified)", "TGI", "> 100 µM"],
  ["CC(C)(CO)CNc1cc(Cl)nc(N)n1", "TGI", "> 100 µM"]
]}

// compound CCOC(=O)CN1C(=O)C(=O)N(c2ccc(OC)c3ccccc23)C1=O , assay MDA-MB-435, TGI value: > 100 µM

----------
# TGI listing for each entry below
Tested on: DU-145 prostate
Measurement description: NCI tumour cell line growth inhibition, 48 h

{"columns": ["Molecule", "Metric name", "Reported value"],
 "data": [
  ["NC(=S)NS(=O)(=O)c1ccc(Cl)cc1", "TGI", "> 100 µM"]
]}

Measured TGI of O=C1Nc2ccccc2SC1=C(C(=O)c1ccccc1)C(=O)c1ccccc1 : > 100 µM

Form field TGI, entry COc1ccc(F)cc1-c1ccnc2[nH]c(C3=CCN(C4CCC(CC(=O)O)CC4)CC3)cc12 (stereo not drawn) : > 100 µM

----------
System: MDA-N
Measurement description: NCI tumour cell line growth inhibition, 48 h
Metric name: TGI

{"columns": ["Molecule", "Reported value"],
 "data": [
  ["COC(=O)C(CNC(=O)/C=C/c1ccc(OC(C)=O)c(OC(C)=O)c1)NC(=O)/C=C/c1ccc(OC(C)=O)c(OC(C)=O)c1 (stereo unspecified)", "> 100 µM"]
]}

For NC(=S)NS(=O)(=O)c1ccc(Cl)cc1 the molecule record lists TGI as > 100 µM

Looking up Nc1ccc(C(=O)O)cc1 , I see its TGI listed as > 100 µM

Lab note: O=C1C=CC(=O)c2c(O)c(N(CCCl)CCCl)c(Cl)c(O)c21 gave TGI of 5.79 µM

Briefly, TGI measured for NNS(=O)(=O)c1ccc(/C=C2\NC(=O)NC2=O)cc1 : > 100 µM

Per the record, COc1ccc(/C=C2\OC(=O)C(Cl)=C2c2ccc(OC)c(Cl)c2)cc1 has TGI of 47.1 µM
